Experimental target: trehalose phosphorylase (Thermoanaerobacter brockii, UniProt Q8L164)
Construct: recombinant E. coli enzyme (pTTP4) equivalent
Sequence (Q8L164 2-774): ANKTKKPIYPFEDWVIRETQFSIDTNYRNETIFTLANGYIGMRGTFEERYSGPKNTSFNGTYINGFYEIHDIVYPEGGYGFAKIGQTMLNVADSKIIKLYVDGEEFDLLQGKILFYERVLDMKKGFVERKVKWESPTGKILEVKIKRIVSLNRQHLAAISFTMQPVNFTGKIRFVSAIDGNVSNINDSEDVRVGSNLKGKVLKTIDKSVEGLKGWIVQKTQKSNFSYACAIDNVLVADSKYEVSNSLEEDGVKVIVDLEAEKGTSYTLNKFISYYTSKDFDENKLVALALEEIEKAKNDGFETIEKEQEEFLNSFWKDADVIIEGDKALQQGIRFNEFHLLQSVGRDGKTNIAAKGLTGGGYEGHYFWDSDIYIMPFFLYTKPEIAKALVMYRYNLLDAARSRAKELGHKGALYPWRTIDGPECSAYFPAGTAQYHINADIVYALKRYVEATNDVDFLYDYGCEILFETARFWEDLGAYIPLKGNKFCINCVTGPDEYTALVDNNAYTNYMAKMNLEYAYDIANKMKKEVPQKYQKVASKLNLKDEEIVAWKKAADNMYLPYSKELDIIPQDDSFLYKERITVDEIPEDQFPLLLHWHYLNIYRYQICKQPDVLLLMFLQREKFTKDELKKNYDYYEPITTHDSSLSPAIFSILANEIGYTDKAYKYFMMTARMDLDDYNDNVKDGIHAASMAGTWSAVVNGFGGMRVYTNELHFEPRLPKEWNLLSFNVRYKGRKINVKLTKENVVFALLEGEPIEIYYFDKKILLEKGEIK
Test method notes: Substrate specificity for saccharide-hydrolyzing reaction by trehalose phosphorylase (TLC)
Type: biochemical, Thermoanaerobium brockii
Set-up: key: +: Hydrolyzed by the action of the present trehalose phosphorylase.; -: Not hydrolyzed by the action of the present trehalose phosphorylase
Conditions: saccharide 2 w/v %, 10 units/g saccharide purified enzyme, 5 mM disodium hydrogenphosphate, 60° C., pH 7.0, 24 hours
Quantity: Decomposition

Compound	Experimental result
OC[C@H]1O[C@@H](O[C@H]2[C@H](O)[C@@H](O)C(O)O[C@@H]2CO)[C@H](O)[C@@H](O)[C@@H]1O (stereo partly drawn)	-
OC[C@H]1O[C@@H](O[C@H]2O[C@H](CO)[C@@H](O)[C@H](O)[C@H]2O)[C@H](O)[C@@H](O)[C@@H]1O	-
OC[C@H]1O[C@H](O[C@H]2O[C@H](CO)[C@@H](O[C@H]3O[C@H](CO)[C@@H](O)[C@H](O)[C@H]3O)[C@H](O)[C@H]2O)[C@H](O)[C@@H](O)[C@@H]1O	-
